# Target Or Test System: T1, P60 (huANGPTL7-Fibrinogen-his) (human, UniProt O43827 129-343)
# T1 construct: also called human ANGPTL7 fibrinogen domain; not shown: C-terminal short linker and His tag
# T1 sequence: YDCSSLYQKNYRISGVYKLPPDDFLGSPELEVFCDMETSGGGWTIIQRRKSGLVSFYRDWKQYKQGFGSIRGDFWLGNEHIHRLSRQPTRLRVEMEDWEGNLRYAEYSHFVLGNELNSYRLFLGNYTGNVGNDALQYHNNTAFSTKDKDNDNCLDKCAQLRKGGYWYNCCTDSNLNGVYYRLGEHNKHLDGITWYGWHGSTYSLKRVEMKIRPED
# Test Method Notes: BLI Octet HTX; IgG on AHC sensor; P60 at 200 nM; 1:1 fit
Binary call on Response with cut-off 0.5 nm: strictly below means Criterion met, and equality or higher means Criterion not met.

{"Binder": "ATX-P-433 (antibody, IgG1, V domains shown, Full chains (VH + hIgG1-Agly-Fc)) VH: EVQLVESGGGLVQPGRSLRLSCAASGFTFDDFAMHWVRQGPGKGLEWVSGIGWNSGSIGYADSVKGRFTISRDNAKNSLYLQMNSLRAEDTALYYCAKAPDYGDYYFDYWGQGTLVTVSS VL: DIQMTQSPSSLSASVGDRVTITCRASQSISIYLNWYQQKPGTAPKLLIYAASSLQSGVPSRFSGSGSGTDFTLTISSLQPEDFAAYYCQQSYTTPLTFGGGTKVEIKR", "Cat": "Criterion not met"}
{"Binder": "ATX-P-449 (antibody, human IgG1, kappa, N297A, V domains shown, Full chains (VH + hIgG1-Agly-Fc)) VH: QVQLVESGGGVVQPGRSLRLSCAASGFAFSSYGMHWVRQAPGKGLEWVAVISYYGSNKYYADSVKGRFTISRDNSKNTLYLQMNSLRAEDTAVYHCARGITMDVWGKGTTVTVSS VL: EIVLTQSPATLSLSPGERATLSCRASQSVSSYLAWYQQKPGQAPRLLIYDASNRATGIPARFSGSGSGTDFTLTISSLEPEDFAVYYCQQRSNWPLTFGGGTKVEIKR", "Cat": "Criterion met"}
{"Binder": "ATX-P-435 (antibody, human IgG1, kappa, N297A, V domains shown, Full chains (VH + hIgG1-Agly-Fc)) VH: QLQLQESGPGLVKPSETLSLTCTVSGGSISSSSSYWGWIRQPPGKGLEWIGSIYYSGSTYSNPSLKSRVTISVDTSKNQFSLKLSSVTAADTAVYYCARQYISGTEYFQYWGQGTLVTVSS VL: EIVLTQSPATLSLSPGERATLSCRASQSVSNYLAWYQQKPGQAPRLLIYDASNRATGIPARFSGSGSGTDFTLTISSLEPEDFAVYYCQQRSNWPSFGQGTRLEIKR", "Cat": "Criterion met"}
{"Binder": "ATX-P-438 (antibody, human IgG1, kappa, N297A, V domains shown, Full chains (VH + hIgG1-Agly-Fc)) VH: QVQLVESGGGVVQPGRSLRLSCAASGFTFSSYGMHWVRQAPGKGLEWVAIISYDGNNKYYADSVKGRFTISRDNSKNTLYLQMNSLRDEDTAVYYCAKERGYSSSSGYYYYYMDVWGKGTTVTVSS VL: EIVLTQSPGTLSLSPGERATLSCRASQSVSRSYLAWYQQKPGQAPRLLIIGASTRATGIPDRFSGSGSGTDFTLTISRLEPEDFAVYYCQQGQVIPPTFGQGTKVEIKR", "Cat": "Criterion met"}

Input ATX-P-442 (antibody, human IgG1, kappa, N297A, V domains shown, Full chains (VH + hIgG1-Agly-Fc)) VH: QITLKESGPTLVKPTQTLTLTCTFSGFSLSTSGVGVGWIRQPPGKALEWLALIYWNDDKRYSPSLKSRLTITKDTSKNLVVLTMTNMDPVDTATYYCARDYGDYWFFDLWGRGTPVTVSS VL: DIQMTQSPSSLSASVGDRVTITCRASQGISSYLAWYQQKPGKAPKLLIYAASSLQSGVPSRFSGSGSGTDFTLTISSLQPEDFATYYCQQSFSTPLTFGGGTKLEIKR ; condition: Response strictly below 0.5 nm. Does it hold?
Criterion not met
